Provenance of the data: ChEMBL document CHEMBL1129711

# assay-target: Integrin alpha-IIb/beta-3 (Homo sapiens, UniProt P05106+P08514)
# assay-explanation: Binding affinity against alpha IIb beta-3 integrin by [125I]-L-692,884 displacement.
# Format: protein-complex assay
readout-name: log10 ED50 (log10 of the value in nM)

compound	log10 ED50
O=C(NC[C@H](NS(=O)(=O)c1ccccc1)C(=O)O)c1ccc2c(c1)C(=O)N(CCC1CCNCC1)C2	-0.48
CC(C)CS(=O)(=O)N[C@@H](CNC(=O)c1ccc2c(c1)C(=O)N(CCC1CCNCC1)C2)C(=O)O	0.08
CCOCCS(=O)(=O)N[C@@H](CNC(=O)c1ccc2c(c1)C(=O)N(CCC1CCNCC1)C2)C(=O)O	0.04
O=C(NC[C@H](NS(=O)(=O)c1cccnc1)C(=O)O)c1ccc2c(c1)C(=O)N(CCC1CCNCC1)C2	-0.42
CCCCS(=O)(=O)N[C@@H](CNC(=O)c1ccc2c(c1)C(=O)N(CCC1CCNCC1)C2)C(=O)O (stereo in doubt)	0.74
